Target: His6-PDK1 (aa 52-556) (Homo sapiens, UniProt O15530)
Construct: 15 μL His6-PDK1 (aa 52-556) 3.33 ng/well); host or cells: baculovirus-infected insect cells
Sequence (O15530 52-556): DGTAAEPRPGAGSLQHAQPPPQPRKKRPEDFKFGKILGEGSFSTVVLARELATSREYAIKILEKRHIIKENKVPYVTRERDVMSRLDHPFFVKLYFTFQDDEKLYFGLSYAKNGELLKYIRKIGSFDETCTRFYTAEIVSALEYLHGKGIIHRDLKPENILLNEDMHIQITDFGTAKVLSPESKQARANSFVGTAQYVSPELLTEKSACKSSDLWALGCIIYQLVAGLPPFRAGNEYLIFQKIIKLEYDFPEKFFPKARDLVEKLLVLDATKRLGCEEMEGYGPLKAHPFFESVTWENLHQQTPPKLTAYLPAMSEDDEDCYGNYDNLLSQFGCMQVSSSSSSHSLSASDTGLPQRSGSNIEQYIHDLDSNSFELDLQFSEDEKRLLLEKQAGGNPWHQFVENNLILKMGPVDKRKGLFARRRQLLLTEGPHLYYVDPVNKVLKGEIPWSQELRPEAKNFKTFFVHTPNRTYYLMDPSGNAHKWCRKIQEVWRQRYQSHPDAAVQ
Test: PDK1 kinase assay III (with Tween 20)
Assay type: biochemical
Settings: compound at 10 μM; PDK1 kinase assay III (values without asterisk); read-out: % CTL (residual activity of the enzyme relative to DMSO control)
property: remaining activity at 10 µM (%)
Give bare numbers, in %.

- Cc1c(/C=C/CNC(=O)c2c(C)n(C)n(Cc3ccc(F)c(F)c3)c2=O)c(=O)n(C(C)C)c2nc(Nc3ccc(N4CCOCC4)cc3)ncc12 [IV-37]: 15.4
- COCCNC(=O)c1ccc(Nc2ncc3cc(C#CCNC(=O)c4c(C)n(C)n(Cc5ccc(F)c(F)c5)c4=O)ccc3n2)cc1: 20.1
- Cc1c(C(=O)NCC#Cc2ccc3nc(Nc4ccc(C(=O)NC5CCN(C)CC5)cc4)ncc3c2)c(=O)n(Cc2ccc(F)c(F)c2)n1C: 11.6
- Cc1c(C(=O)NC/C=C/c2ccc3nc(Nc4ccc(CN(C)C)cc4)ncc3c2)c(=O)n(Cc2ccccc2)n1C [IV-19]: 12.6
- CN(C)Cc1ccc(Nc2ncc3cc(C#CCNC(=O)c4cncn(Cc5ccc(F)c(F)c5)c4=O)ccc3n2)cc1 [III-16]: 9.5
- CN1CCC(N(C)c2ccc(Nc3ncc4cc(C#CCNC(=O)c5ccnn(Cc6ccc(F)c(F)c6)c5=O)ccc4n3)cc2)CC1 [III-36]: 13.2

// moving on: another record for remaining activity at 10 µM
Q. In one line, give reported remaining activity at 10 µM of the entry O=C(NCc1ccc(Nc2ncnc3[nH]ccc23)cc1)c1cncn(Cc2ccc(F)c(F)c2)c1=O [IV-27] .
A. 43.9

###

Provide the recorded remaining activity at 10 µM for the entries that follow.
Target: His6-PDK1 (aa 52-556) (Homo sapiens, UniProt O15530)
Construct: 15 μL His6-PDK1 (aa 52-556) 3.33 ng/well); host or cells: baculovirus-infected insect cells
Assay: PDK1 kinase assay III (with Tween 20)
Assay type: biochemical
Conditions: compound at 10 μM; PDK1 kinase assay III (values without asterisk); read-out: % CTL (residual activity of the enzyme relative to DMSO control)
Give bare numbers, in %.

Recorded remaining activity at 10 µM, per entry:
• NCc1[nH]cnc1/C=C1\C(=O)Nc2cc(/C=C/CNC(=O)c3cncn(Cc4ccc(F)c(F)c4)c3=O)ccc21 [I-49] = 12.6
• COCCCNC(=O)c1ccc(Nc2ncc3cc(C#CCNC(=O)c4c(C)n(C)n(Cc5ccc(F)c(F)c5)c4=O)ccc3n2)cc1 = 12.1
• CNc1ncc2cc(/C=C/CNC(=O)c3cncn(Cc4ccc(F)c(F)c4)c3=O)ccc2n1 = 21.7
• CCOC(=O)c1ccc(Nc2ncc3cc(C#CCNC(=O)c4cncn(Cc5ccc(F)c(F)c5)c4=O)ccc3n2)cc1 [III-39] = 19
• Cc1c(C(=O)NCC#Cc2ccc3nc(Nc4ccc(N(C)C5CCN(C)CC5)cc4)ncc3c2)c(=O)n(Cc2ccc(F)c(F)c2)n1C [III-40] = 13.5

Provide reported remaining activity at 10 µM for each item, in the same order as listed.
1. CN(C)Cc1ccc(-c2n[nH]c3cc(C#CCNC(=O)c4cncn(Cc5ccc(F)c(F)c5)c4=O)ccc23)cc1 [II-9]
2. COc1cc(Nc2ncc3cc(C#CCNC(=O)c4c(C)n(C)n(Cc5ccc(F)c(F)c5)c4=O)ccc3n2)ccc1C(=O)NC1CCN(C)CC1
3. Cc1c(C(=O)NC/C=C/c2ccc3c(c2)NC(=O)/C3=C\c2cnc[nH]2)c(=O)n(Cc2ccc(F)c(F)c2)n1C [I-17]
4. Cc1c(C(=O)NCC#Cc2ccc3nc(Nc4ccc(C(=O)O)cc4)ncc3c2)c(=O)n(Cc2ccc(F)c(F)c2)n1C [III-47]
5. Cn1cc(C(=O)NC/C=C/c2ccc3c(c2)NC(=O)/C3=C\c2cnc[nH]2)c(=O)n(Cc2ccc(F)c(F)c2)c1=O [I-43]
6. CN(C)Cc1ccc(Nc2ncc3cc(CCCNC(=O)c4cncn(Cc5ccc(F)c(F)c5)c4=O)ccc3n2)cc1 [IV-23]
7. O=C1Nc2cc(/C=C/CNC(=O)c3cncn(Cc4ccc(F)c(F)c4)c3=O)cc(F)c2/C1=C/c1cnc[nH]1 [I-46]
8. CN1CCC(N(C)c2ccc(Nc3ncc4cc(/C=C/CNC(=O)c5cncn(Cc6ccc(F)c(F)c6)c5=O)ccc4n3)cc2)CC1 [IV-45]

A.
1: 10.7; 2: 15; 3: 14.3; 4: 13.3; 5: 20.3; 6: 16.8; 7: 15.6; 8: 15.3

Q. In one line, give reported remaining activity at 10 µM of the entry CN1CCC(N(C)c2ccc(Nc3ncc4cc(/C=C/CNC(=O)c5cn(C)c(=O)n(Cc6ccc(F)c(F)c6)c5=O)ccc4n3)cc2)CC1 [IV-44] .
A. 16.3
